Biological target: CYP3A4 (Homo sapiens)
Sequence (P08684 whole entry): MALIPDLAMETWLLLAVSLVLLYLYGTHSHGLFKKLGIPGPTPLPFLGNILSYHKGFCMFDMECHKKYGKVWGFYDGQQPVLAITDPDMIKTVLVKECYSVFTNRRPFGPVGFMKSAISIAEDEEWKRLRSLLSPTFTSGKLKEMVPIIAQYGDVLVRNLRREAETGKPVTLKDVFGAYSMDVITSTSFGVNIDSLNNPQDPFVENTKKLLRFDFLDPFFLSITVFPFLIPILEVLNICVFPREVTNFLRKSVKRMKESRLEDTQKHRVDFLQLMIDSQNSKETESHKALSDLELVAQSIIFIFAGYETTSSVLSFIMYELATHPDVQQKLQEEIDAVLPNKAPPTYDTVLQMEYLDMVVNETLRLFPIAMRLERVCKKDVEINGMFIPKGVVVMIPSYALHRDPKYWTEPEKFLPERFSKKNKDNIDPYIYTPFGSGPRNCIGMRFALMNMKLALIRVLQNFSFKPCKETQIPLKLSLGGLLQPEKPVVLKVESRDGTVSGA
Assay: H2O2-dependent heme depletion assay
Set-up: Codon-optimized full-length and Δ3–22 human CYP3A4 were produced as reported previously [45] and used for assays and crystallization, respectively; made in house
Conditions: 1.6 μM CYP3A4, 16 μM inhibitor, 10 mM H2O2, 120 min, relative to ligand-free CYP3A4 (100% decay)
Measured Parameter: % decay (heme destroyed at the end of the reaction) (%)

CC(C)(C)OC(=O)N[C@@H](CS[C@H](Cc1ccccc1)C(=O)NCCCc1cccnc1)Cc1cccc2ccccc12 [Compound 3i]
23

(P) CC(C)(C)OC(=O)NC(CSCC(Nc1ccccc1)C(=O)NCCCc1cccnc1)Cc1ccccc1 (stereo not drawn) [Compound 8]
(Q) CC(C)(C)OC(=O)N[C@H](CS[C@@H](Cc1ccccc1)C(=O)NCCCc1cccnc1)Cc1cccc2ccccc12 [Compound 3h]
Pick one: P or Q . Which one has the lower reported % decay (heme destroyed at the end of the reaction)? Please respond with the label that marks your chosen entry. Q
(Q: 12%, P: 22%)
